method: Full PK study in dog (half-life)
conditionDetails: in vivo
parameter: half-life (h)
Your answer should be a plain number; it is taken to be in h.

Which half-life reading was recorded for the compound "COc1cc(-n2cnc3cc(-c4ccc(Cl)cc4)sc3c2=O)ccc1OCC1(O)CC(F)(F)C1" ?
16

* * *

System: cytochrome P450 enzymes (rat microsomal)
method: Metabolic stability versus rat microsomal oxidative degradation
conditionDetails: rat microsomal oxidative degradation mediated by cytochrome P450
# strict inequality: Rat Microsomal Stability < 60% yields rule met, everything else yields rule not met

# example entries with known answers
compound	categoryLabel
COc1cc(-n2cnc3cc(-c4ccc(Cl)cc4)sc3c2=O)ccc1OCC(O)CC(F)(F)F (centres unmarked) [d]	rule not met
COc1cc(-n2cnc3cc(-c4ccc(Cl)cc4)sc3c2=O)ccc1OCC1(O)COC1 [b]	rule met
COc1cc(-n2cnc3cc(-c4ccc(Cl)cc4)sc3c2=O)ccc1OCC1(O)CC(F)(F)C1 [IB]	rule not met
COc1cc(-n2cnc3cc(-c4ccc(Cl)cc4)sc3c2=O)ccc1OCC(C)(C)O [f]	rule not met
COc1cc(-n2cnc3cc(-c4ccc(Cl)cc4)sc3c2=O)ccc1OCC1(O)CCC1 [a]	rule met

Please indicate whether the reported Rat Microsomal Stability of CCS(=O)(=O)CC(O)COc1ccc(-n2cnc3cc(-c4ccc(Cl)cc4)sc3c2=O)cc1OC (centres unmarked) [e] is strictly below 60%.
rule not met

Same lookup for COc1cc(-n2cnc3cc(-c4ccc(Cl)cc4)sc3c2=O)ccc1OC[C@H](O)C1CC1 [IA] , please.
rule not met
